Details: 460 K; Liquid; Gas chromatography
measured-attribute: vapor or sublimation pressure (kPa)

CC/C=C/CCCCCCCCCCOC(C)=O [(E)-tetradec-11-enyl acetate]    2.7
C#CCOC(=O)/C=C(C)/C=C/CC(C)CCCC(C)C (centres undefined) [prop-2-ynyl (2E,4E)-3,7,11-trimethyldodeca-2,4-dienoate]    1.2

[I] CC/C=C/C=C/CCCCCCCCOC(C)=O [(9E,11E)-tetradeca-9,11-dienyl acetate]
[II] CCC/C=C\CCCCCCCOC(C)=O [(Z)-dodec-8-enyl acetate]
Just curious, which one has the larger vapor or sublimation pressure reading, I or II ? Kindly state the label of the option you pick.
II
(II: 7.3 kPa, I: 2.1 kPa)

----------
Settings: 500 K; Liquid; Gas chromatography
measured-attribute: vapor or sublimation pressure (kPa)

C#CCOC(=O)/C=C(C)/C=C/CC(C)CCCC(C)C (stereo not drawn) [prop-2-ynyl (2E,4E)-3,7,11-trimethyldodeca-2,4-dienoate]    5.5

[a] CCCCCCCC/C=C\CCCOC(C)=O [(Z)-tridec-4-enyl acetate]
[b] CC/C=C/CCCCCCCCCCOC(C)=O [(E)-tetradec-11-enyl acetate]
Just curious, which one has the larger vapor or sublimation pressure reading, a or b ? Kindly state the label of the option you pick.
a
(a: 18 kPa, b: 11 kPa)

----------
Conditions: 450 K; Liquid; Gas chromatography
measured-attribute: vapor or sublimation pressure (kPa)

C#CCOC(=O)/C=C(C)/C=C/CC(C)CCCC(C)C (configuration not stated) [prop-2-ynyl (2E,4E)-3,7,11-trimethyldodeca-2,4-dienoate]    0.78
CC/C=C/C=C/CCCCCCCCOC(C)=O [(9E,11E)-tetradeca-9,11-dienyl acetate]    1.4
CCOC(=O)/C=C(C)/C=C/C[C@@H](C)CCCC(C)C [ethyl (S,2E,4E)-3,7,11-trimethyldodeca-2,4-dienoate]    1.3

[1] CC/C=C/CCCCCCCCCCOC(C)=O [(E)-tetradec-11-enyl acetate]
[2] CCC/C=C\CCCCCCCOC(C)=O [(Z)-dodec-8-enyl acetate]
[3] CCCC/C=C\CCCCCCCCCCCCOC(C)=O [(Z)-octadec-13-en-1-yl acetate]
[4] CCCCCCCC/C=C\CCCOC(C)=O [(Z)-tridec-4-enyl acetate]
Form: Sort by [vapor or sublimation pressure] Order [ ascending ] Please respond with the labels ordered as the question requires.
3, 1, 4, 2

----------
Settings: 320 K; Liquid; Gas chromatography
measured-attribute: vapor or sublimation pressure (kPa)

CCC/C=C\CCCCCCCOC(C)=O [(Z)-dodec-8-enyl acetate]    0.0023
CCCCCCCC/C=C\CCCOC(C)=O [(Z)-tridec-4-enyl acetate]    0.0011
CCOC(=O)/C=C(C)/C=C/C[C@@H](C)CCCC(C)C [ethyl (S,2E,4E)-3,7,11-trimethyldodeca-2,4-dienoate]    0.00017

[A] CC/C=C/C=C/CCCCCCCCOC(C)=O [(9E,11E)-tetradeca-9,11-dienyl acetate]
[B] CC/C=C/CCCCCCCCCCOC(C)=O [(E)-tetradec-11-enyl acetate]
Just curious, which one has the larger vapor or sublimation pressure reading, A or B ? Kindly state the label of the option you pick.
B

----------
Details: 440 K; Liquid; Gas chromatography
measured-attribute: vapor or sublimation pressure (kPa)

CCOC(=O)/C=C(C)/C=C/C[C@@H](C)CCCC(C)C [ethyl (S,2E,4E)-3,7,11-trimethyldodeca-2,4-dienoate]    0.81

[1] CCCCCCCC/C=C\CCCOC(C)=O [(Z)-tridec-4-enyl acetate]
[2] CCCC/C=C\CCCCCCCCCCCCOC(C)=O [(Z)-octadec-13-en-1-yl acetate]
Just curious, which one has the larger vapor or sublimation pressure reading, 1 or 2 ? Kindly state the label of the option you pick.
1

----------
Details: 360 K; Liquid; Gas chromatography
measured-attribute: vapor or sublimation pressure (kPa)

CCOC(=O)/C=C(C)/C=C/C[C@@H](C)CCCC(C)C [ethyl (S,2E,4E)-3,7,11-trimethyldodeca-2,4-dienoate]    0.0065

[1] CCCCCCCC/C=C\CCCOC(C)=O [(Z)-tridec-4-enyl acetate]
[2] CC/C=C/CCCCCCCCCCOC(C)=O [(E)-tetradec-11-enyl acetate]
Which of these two has the smaller recorded vapor or sublimation pressure: 1 or 2 ? Kindly state the label of the option you pick.
2
(2: 0.011 kPa, 1: 0.029 kPa)

----------
Details: 470 K; Liquid; Gas chromatography
measured-attribute: vapor or sublimation pressure (kPa)

CCC/C=C\CCCCCCCOC(C)=O [(Z)-dodec-8-enyl acetate]    10
CC/C=C/C=C/CCCCCCCCOC(C)=O [(9E,11E)-tetradeca-9,11-dienyl acetate]    3
C#CCOC(=O)/C=C(C)/C=C/CC(C)CCCC(C)C (configuration not stated) [prop-2-ynyl (2E,4E)-3,7,11-trimethyldodeca-2,4-dienoate]    1.8
CCOC(=O)/C=C(C)/C=C/C[C@@H](C)CCCC(C)C [ethyl (S,2E,4E)-3,7,11-trimethyldodeca-2,4-dienoate]    2.8

[1] CCCC/C=C\CCCCCCCCCCCCOC(C)=O [(Z)-octadec-13-en-1-yl acetate]
[2] CC/C=C/CCCCCCCCCCOC(C)=O [(E)-tetradec-11-enyl acetate]
[3] CCCCCCCC/C=C\CCCOC(C)=O [(Z)-tridec-4-enyl acetate]
Sort these molecules on vapor or sublimation pressure so the largest reading comes first. Please respond with the labels ordered as the question requires.
3, 2, 1
(3: 6.9 kPa, 2: 3.9 kPa, 1: 0.76 kPa)

----------
Settings: 430 K; Liquid; Gas chromatography
measured-attribute: vapor or sublimation pressure (kPa)

Worked examples, 5 compounds total:
C#CCOC(=O)/C=C(C)/C=C/CC(C)CCCC(C)C (configuration not stated) [prop-2-ynyl (2E,4E)-3,7,11-trimethyldodeca-2,4-dienoate]    0.29
CC/C=C/CCCCCCCCCCOC(C)=O [(E)-tetradec-11-enyl acetate]    0.73
CCCCCCCC/C=C\CCCOC(C)=O [(Z)-tridec-4-enyl acetate]    1.5
CCOC(=O)/C=C(C)/C=C/C[C@@H](C)CCCC(C)C [ethyl (S,2E,4E)-3,7,11-trimethyldodeca-2,4-dienoate]    0.5
CCC/C=C\CCCCCCCOC(C)=O [(Z)-dodec-8-enyl acetate]    2.3

[a] CC/C=C/C=C/CCCCCCCCOC(C)=O [(9E,11E)-tetradeca-9,11-dienyl acetate]
[b] CCCC/C=C\CCCCCCCCCCCCOC(C)=O [(Z)-octadec-13-en-1-yl acetate]
Just curious, which one has the larger vapor or sublimation pressure reading, a or b ? Kindly state the label of the option you pick.
a
(a: 0.54 kPa, b: 0.1 kPa)

----------
Conditions: 500 K; Liquid; Gas chromatography
measured-attribute: vapor or sublimation pressure (kPa)

CCOC(=O)/C=C(C)/C=C/C[C@@H](C)CCCC(C)C [ethyl (S,2E,4E)-3,7,11-trimethyldodeca-2,4-dienoate]    8

[1] CCC/C=C\CCCCCCCOC(C)=O [(Z)-dodec-8-enyl acetate]
[2] CC/C=C/C=C/CCCCCCCCOC(C)=O [(9E,11E)-tetradeca-9,11-dienyl acetate]
[3] CCCC/C=C\CCCCCCCCCCCCOC(C)=O [(Z)-octadec-13-en-1-yl acetate]
Form: Sort by [vapor or sublimation pressure] Order [ ascending ] Please respond with the labels ordered as the question requires.
3, 2, 1

----------
Conditions: 400 K; Liquid; Gas chromatography
measured-attribute: vapor or sublimation pressure (kPa)

C#CCOC(=O)/C=C(C)/C=C/CC(C)CCCC(C)C (configuration not stated) [prop-2-ynyl (2E,4E)-3,7,11-trimethyldodeca-2,4-dienoate]    0.053
CCOC(=O)/C=C(C)/C=C/C[C@@H](C)CCCC(C)C [ethyl (S,2E,4E)-3,7,11-trimethyldodeca-2,4-dienoate]    0.1
CC/C=C/C=C/CCCCCCCCOC(C)=O [(9E,11E)-tetradeca-9,11-dienyl acetate]    0.11

[I] CC/C=C/CCCCCCCCCCOC(C)=O [(E)-tetradec-11-enyl acetate]
[II] CCCC/C=C\CCCCCCCCCCCCOC(C)=O [(Z)-octadec-13-en-1-yl acetate]
[III] CCCCCCCC/C=C\CCCOC(C)=O [(Z)-tridec-4-enyl acetate]
[IV] CCC/C=C\CCCCCCCOC(C)=O [(Z)-dodec-8-enyl acetate]
Form: Sort by [vapor or sublimation pressure] Order [ ascending ] Please respond with the labels ordered as the question requires.
II, I, III, IV

----------
Settings: 490 K; Liquid; Gas chromatography
measured-attribute: vapor or sublimation pressure (kPa)

Worked examples, 5 compounds total:
CC/C=C/C=C/CCCCCCCCOC(C)=O [(9E,11E)-tetradeca-9,11-dienyl acetate]    6.2
CC/C=C/CCCCCCCCCCOC(C)=O [(E)-tetradec-11-enyl acetate]    7.8
CCOC(=O)/C=C(C)/C=C/C[C@@H](C)CCCC(C)C [ethyl (S,2E,4E)-3,7,11-trimethyldodeca-2,4-dienoate]    5.8
CCCCCCCC/C=C\CCCOC(C)=O [(Z)-tridec-4-enyl acetate]    13
C#CCOC(=O)/C=C(C)/C=C/CC(C)CCCC(C)C (configuration not stated) [prop-2-ynyl (2E,4E)-3,7,11-trimethyldodeca-2,4-dienoate]    3.9

[P] CCC/C=C\CCCCCCCOC(C)=O [(Z)-dodec-8-enyl acetate]
[Q] CCCC/C=C\CCCCCCCCCCCCOC(C)=O [(Z)-octadec-13-en-1-yl acetate]
Which of these two has the smaller recorded vapor or sublimation pressure: P or Q ? Kindly state the label of the option you pick.
Q
(Q: 1.7 kPa, P: 19 kPa)

All values here come from the NIST ThermoML archive (doi:10.1021/acs.jced.5b00892).
